Target: SaDHOase (Staphylococcus aureus, UniProt Q5HGN1)
Construct: The full-length SaDHOase was expressed and purified following the cloning of the SaDHO gene; His-SUMO with HRV 3C protease site (N, cleaved yes); made in house; host or cells: E. coli BL21 (DE3)
Sequence (Q5HGN1 1-424): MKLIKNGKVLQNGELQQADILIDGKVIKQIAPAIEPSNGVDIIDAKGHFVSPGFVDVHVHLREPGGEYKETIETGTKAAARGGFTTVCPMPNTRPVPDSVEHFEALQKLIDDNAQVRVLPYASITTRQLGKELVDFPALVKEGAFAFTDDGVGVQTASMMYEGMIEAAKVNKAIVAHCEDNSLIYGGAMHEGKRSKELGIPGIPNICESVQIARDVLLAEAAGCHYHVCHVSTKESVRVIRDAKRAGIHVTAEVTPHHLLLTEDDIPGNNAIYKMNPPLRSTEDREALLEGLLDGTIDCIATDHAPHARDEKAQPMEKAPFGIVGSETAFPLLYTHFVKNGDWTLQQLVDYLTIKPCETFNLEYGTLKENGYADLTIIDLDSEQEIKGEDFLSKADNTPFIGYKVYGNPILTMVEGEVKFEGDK
Test: SPR direct binding, steady-state affinity KD determination
Conditions: compound alone, immobilized SaDHOase, 25 °C, steady-state affinity fit
experimental-readout: pKd
Reminder that pKd is minus the log10 of a molar concentration.

Task: What does the record list as pKd for "Cc1ccccc1CN1CCCN(C)CC1" ?
Output: 3.81

Task: Also, "Cc1ccccc1CN1CCC(O)CC1" please.
Output: 4.39

Task: Param item: Cc1cccc(CN2CCCC(CO)C2)c1 (stereo not drawn)
Output: 4.42

Task: Entry to check: NC1C(=O)Nc2ccc(Br)cc21 (stereo not drawn)
Output: 3.69

Task: What would you report for "CCc1ccc(CN2CCC(O)CC2)cc1" ?
Output: 3.90

----------
Target: SaDHOase (Staphylococcus aureus, UniProt Q5HGN1)
Construct: The full-length SaDHOase was expressed and purified following the cloning of the SaDHO gene; His-SUMO with HRV 3C protease site (N, cleaved yes)
Sequence (Q5HGN1 1-424): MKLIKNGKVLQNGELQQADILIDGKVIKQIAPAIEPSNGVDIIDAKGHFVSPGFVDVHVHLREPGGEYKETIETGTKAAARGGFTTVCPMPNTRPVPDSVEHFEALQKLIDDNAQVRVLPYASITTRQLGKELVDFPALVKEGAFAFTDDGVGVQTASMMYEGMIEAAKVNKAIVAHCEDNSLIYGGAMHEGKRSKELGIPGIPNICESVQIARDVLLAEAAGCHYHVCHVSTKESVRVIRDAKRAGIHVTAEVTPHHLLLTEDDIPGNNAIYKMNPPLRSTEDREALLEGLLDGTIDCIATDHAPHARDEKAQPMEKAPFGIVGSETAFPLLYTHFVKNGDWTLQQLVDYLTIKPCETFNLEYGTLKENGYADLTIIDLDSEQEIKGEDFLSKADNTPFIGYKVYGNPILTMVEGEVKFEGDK
Assay: SPR direct binding, steady-state affinity KD determination
Conditions: compound alone, immobilized SaDHOase, 25 °C, steady-state affinity fit
The label is yes (1) for Kd below 50 µM and no (0) for Kd equal to or exceeding 50 µM.

Task: Kd under 50 µM? Item: Cc1ccc(C)c(CN2CCC(O)CC2)c1 [Compound 8]
Output: yes (1)

Task: Param item: Cc1ccc(CN2CCC(O)CC2)cc1 [Compound 5]
Output: yes (1)

Task: Another: OC1CCN(Cc2cccc(Cl)c2Cl)CC1 [Compound 6]
Output: no (0)

Task: CCNC(=O)N1CCC(N)CC1 [Compound 4] ?
Output: no (0)

Task: // repeat for Cc1ccc(CN2CCCC(O)C2)c(C)c1 (centres unmarked) [Compound 13] and report
Output: no (0)

Task: Also Cn1c(SCC#N)nc2ccccc2c1=O [Compound 2] , if possible.
Output: no (0)

Task: Check OC1CCN(Cc2cccc(C(F)(F)F)c2)CC1 [Compound 11] too.
Output: no (0)

Task: Try this compound too: OC1CCN(Cc2ccc(C(F)(F)F)cc2)CC1 [Compound 12]
Output: yes (1)
